Biological target: Syk (356-635 amino acids) catalytic domain (Homo sapiens (Human), UniProt P43405)
Assay: Inhibition of enzymatic Syk kinase activity (radiometric)
Type: biochemical
Settings: read-out: IC50 Syk
pIC50: −log10 of the molar value. Where a name gives a salt, the structure may show the parent alone.
Give pIC50 for every item shown.

• CC1(O)CCN(CCc2ccc(Nc3nc(N4CCCCCC4)nc4cn[nH]c(=O)c34)cc2)CC1 = > 7.30
• N=Cc1nc(N2CCCCCC2)nc(Nc2ccc(N3CCCC(CC(=O)O)C3)cc2)c1C(N)=O (stereo not shown) = > 7.30
• CN(C)CCOc1ccc(Nc2nc(N3CCCCCC3)nc3cn[nH]c(=O)c23)cc1 = > 7.30

Parameter requested: pIC50. Apply to each item below.
1. O=c1[nH]ncc2nc(-c3ccc(Cl)cc3)nc(Nc3ccc(CN4CCNCC4)cc3)c12 [Example 40, hydrochloride]
2. O=c1[nH]ncc2nc(N3CCCCCC3)nc(Nc3ccc(N4CCC(CO)CC4)cc3)c12
3. CC(C)(C#N)N1CCN(c2ccc(Nc3nc(N4CCCCCC4)nc4cn[nH]c(=O)c34)cc2)CC1
4. O=C(O)CC1CCC(c2ccc(Nc3nc(N4CCCCCC4)nc4cn[nH]c(=O)c34)cc2)CC1 (stereo not shown)
5. O=C(O)C1CC12CCN(c1ccc(Nc3nc(-c4ccccc4)nc4cn[nH]c(=O)c34)cn1)CC2 (stereo not shown)
6. O=c1[nH]ncc2nc(N3CCCCCC3)nc(Nc3ccc(N4CCC(CCO)CC4)cc3)c12
7. N#CCC1CCN(c2nc(Nc3ccc(N4CCCC(CCO)C4)cc3)c3c(=O)[nH]ncc3n2)CC1 (stereo not shown)

["> 7.30", "> 7.30", "> 7.30", "> 8.00", "< 7.00", "> 8.00", "> 7.30"]
